molecular target: T1, huCDH19(1-43)::FLAG::hu(44-141)::ckCDH19(142-776), on 293T cells (human/chicken chimera); assay: FACS, transfected 293T;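 also: antibody binding to chimera-expressing cells with 2 mM CaCl2 present, cell-bound Alexa647-labelled antibody read by flow cytometry, mock-transfected cells serving as control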
T1 construct: Entry holds leader (1-43), Flag tag and CDH19 part; leader left out; also called Hu EC1 (chicken backbone)
property-label: binding result

>>> observed("hu anti-<huCDH19> 17H8.2 VH::huIgG1z / 17H8.2 VL::huKLC (Ab ID 13874) (antibody, V domains shown, also called 23B6; 28D10) VH: QVQLQESGPGLVKPSETLSLTCTVSGGSINSYYWSWIRQPPGKGLEWIGYIYYIGSTNYNPSLKSRVTISVDTSKNQFSLKLSSVTAADTALYYCARDSRYRSGWYDAFDIWGQGTMVTVSS VL: DIVLTQSPGTLSLSPGERATLSCRASQSVAGSYLAWYQQKPGQAPRLLISGASSRATGIPDRFSGSGSGTDFTLTISRLEPEDFAVYYCQQYGKSPITFGQGTRLEMKG")
"binds"
>>> observed("hu anti-<huCDH19> 4A9 VH::huIgG1z / 4A9 VL::huLLC-C1 (Ab ID 13589) (antibody, V domains shown, Recombinant fully human IgG1) VH: QVQLQESGPGLVKPSETLSLTCTVSGGSISGYYWSWIRQPPGKGLEWFAYFSYSGSTNYNPSLKSRVTLSVDTSKNQFSLKLSSVTAADTAVYYCARNWAFHFDFWGQGTLVTVSS VL: QSVLTQPPSVSGAPGQRVTISCTGSSSNIGTGYAVHWYQQFPGTAPKLLIYGNNNRPSGVPDRFSGSKSGTSASLAITGLQAEDEADYYCQSYDSRLSGWVFGGGTKLTVLG")
"binds"
